All values here come from patent US20090118184A1.

TARGET_OF_ASSAY: T1, factor VIIIa A1/A3C1C2 dimer, wild type (human, UniProt P00451 20-391; P00451 1709-2351)
T1 sequence 1: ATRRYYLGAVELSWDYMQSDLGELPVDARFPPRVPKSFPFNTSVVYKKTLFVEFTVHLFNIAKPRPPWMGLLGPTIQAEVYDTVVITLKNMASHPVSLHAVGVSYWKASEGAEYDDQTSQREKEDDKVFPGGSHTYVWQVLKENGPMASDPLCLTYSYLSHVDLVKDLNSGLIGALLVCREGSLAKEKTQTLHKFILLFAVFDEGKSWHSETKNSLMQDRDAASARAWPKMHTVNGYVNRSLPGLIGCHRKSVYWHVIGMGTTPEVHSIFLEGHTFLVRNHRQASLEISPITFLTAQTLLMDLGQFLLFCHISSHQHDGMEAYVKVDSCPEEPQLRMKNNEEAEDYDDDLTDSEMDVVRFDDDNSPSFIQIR
T1 sequence 2: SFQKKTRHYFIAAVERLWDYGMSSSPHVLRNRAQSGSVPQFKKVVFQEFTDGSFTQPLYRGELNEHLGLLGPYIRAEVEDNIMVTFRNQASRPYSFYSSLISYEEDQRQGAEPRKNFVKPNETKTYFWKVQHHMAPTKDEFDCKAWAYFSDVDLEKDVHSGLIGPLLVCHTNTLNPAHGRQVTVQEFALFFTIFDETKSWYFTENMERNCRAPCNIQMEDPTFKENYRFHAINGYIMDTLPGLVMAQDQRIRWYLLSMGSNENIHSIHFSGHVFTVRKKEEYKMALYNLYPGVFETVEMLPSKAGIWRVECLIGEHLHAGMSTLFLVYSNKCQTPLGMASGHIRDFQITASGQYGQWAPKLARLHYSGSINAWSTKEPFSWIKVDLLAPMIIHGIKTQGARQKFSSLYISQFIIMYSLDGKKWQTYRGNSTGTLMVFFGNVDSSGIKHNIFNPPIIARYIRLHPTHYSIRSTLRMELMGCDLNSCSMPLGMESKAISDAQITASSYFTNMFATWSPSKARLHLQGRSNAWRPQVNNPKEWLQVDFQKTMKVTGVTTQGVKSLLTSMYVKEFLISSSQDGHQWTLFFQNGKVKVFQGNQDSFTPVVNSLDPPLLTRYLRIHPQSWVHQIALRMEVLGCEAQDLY
TEST: cell-based or functional assay
MEASURE_NAME: Factor VIIIa Decay, Factor IXa absent

factor VIIIa A2 subunit, Glu665Ala (other) SVAKKHPKTWVHYIAAEEEDWDYAPLVLAPDDRSYKSQYLNNGPQRIGRKYKKVRFMAYTDETFKTREAIQHESGILGPLLYGEVGDTLLIIFKNQASRPYNIYPHGITDVRPLYSRRLPKGVKHLKDFPILPGEIFKYKWTVTVEDGPTKSDPRCLTRYYSSFVNMERDLASGLIGPLLICYKESVDQRGNQIMSDKRNVILFSVFDENRSWYLTENIQRFLPNPAGVQLEDPEFQASNIMHSINGYVFDSLQLSVCLHEVAYWYILSIGAQTDFLSVFFSGYTFKHKMVYADTLTLFPFSGETVFMSMENPGLWILGCHNSDFRNRGMTALLKVSSCDKNTGDYYEDSYEDISAYLLSKNNAIEPR : 0.052 min⁻¹

Next:
For record factor VIIIa A2 subunit, wild type (other) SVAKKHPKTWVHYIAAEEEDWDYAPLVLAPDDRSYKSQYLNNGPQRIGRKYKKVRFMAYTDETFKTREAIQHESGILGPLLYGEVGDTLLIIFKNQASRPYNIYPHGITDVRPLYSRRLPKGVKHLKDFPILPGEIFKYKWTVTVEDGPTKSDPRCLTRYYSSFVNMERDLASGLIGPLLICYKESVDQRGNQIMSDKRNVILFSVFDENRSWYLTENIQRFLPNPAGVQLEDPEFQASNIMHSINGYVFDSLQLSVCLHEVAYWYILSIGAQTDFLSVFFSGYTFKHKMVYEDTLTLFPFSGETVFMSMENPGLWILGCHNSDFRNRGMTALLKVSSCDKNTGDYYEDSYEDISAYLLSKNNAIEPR the listed Factor VIIIa Decay, Factor IXa absent is 0.0836 min⁻¹
